Ratio IC50 values for the molecules below.
experiment summary: Selectivity index, ratio of IC50 for antiproliferative activity against human MCF7 cells assessed as inhibition of cell growth to IC50 for antiproliferative activity against human MCF7ADR cells assessed as inhibition of cell growth
Assay type: functional

compound	limit qualifier	Ratio IC50
O=C(CCCOc1no[n+]([O-])c1S(=O)(=O)c1ccccc1)Oc1ccc2cc1Oc1ccc(cc1)CCc1cccc(OC(=O)CCCOc3no[n+]([O-])c3S(=O)(=O)c3ccccc3)c1Oc1cccc(c1)CC2	=	22
O=S(=O)(c1ccccc1)c1c(OCCCCCCOc2cccc3c2Oc2cccc(c2)CCc2ccc(O)c(c2)Oc2ccc(cc2)CC3)no[n+]1[O-]	>	54
O=C(CCCCCOc1no[n+]([O-])c1S(=O)(=O)c1ccccc1)Oc1ccc2cc1Oc1ccc(cc1)CCc1cccc(OC(=O)CCCCCOc3no[n+]([O-])c3S(=O)(=O)c3ccccc3)c1Oc1cccc(c1)CC2	<	7
O=[N+]([O-])c1ccc(O/N=[N+](\[O-])N2CCN(Cc3ccc4c(c3O)Oc3cccc(c3)CCc3ccc(O)c(c3)Oc3ccc(cc3)CC4)CC2)c([N+](=O)[O-])c1	<	7
O=S(=O)(c1ccccc1)c1c(OCCCOc2cccc3c2Oc2cccc(c2)CCc2ccc(O)c(c2)Oc2ccc(cc2)CC3)no[n+]1[O-]	=	883
O=S(=O)(c1ccccc1)c1c(Oc2ccc(COc3cccc4c3Oc3cccc(c3)CCc3ccc(O)c(c3)Oc3ccc(cc3)CC4)cc2)no[n+]1[O-]	<	7
O=S(=O)(c1ccccc1)c1c(OCCCOc2ccc3cc2Oc2ccc(cc2)CCc2cccc(O)c2Oc2cccc(c2)CC3)no[n+]1[O-]	=	35
O=S(=O)(c1ccccc1)c1c(OC/C=C\COc2cccc3c2Oc2cccc(c2)CCc2ccc(O)c(c2)Oc2ccc(cc2)CC3)no[n+]1[O-]	<	7
O=S(=O)(c1ccccc1)c1c(OCCOCCOc2cccc3c2Oc2cccc(c2)CCc2ccc(O)c(c2)Oc2ccc(cc2)CC3)no[n+]1[O-]	=	15
O=S(=O)(c1ccccc1)c1c(OCCCCOc2ccc3cc2Oc2ccc(cc2)CCc2cccc(OCCCCOc4no[n+]([O-])c4S(=O)(=O)c4ccccc4)c2Oc2cccc(c2)CC3)no[n+]1[O-]	<	7
O=S(=O)(c1ccccc1)c1c(OCCOc2ccc3cc2Oc2ccc(cc2)CCc2cccc(O)c2Oc2cccc(c2)CC3)no[n+]1[O-]	=	55
O=S(=O)(c1ccccc1)c1c(OC/C=C\COc2ccc3cc2Oc2ccc(cc2)CCc2cccc(OC/C=C\COc4no[n+]([O-])c4S(=O)(=O)c4ccccc4)c2Oc2cccc(c2)CC3)no[n+]1[O-]	<	7

---

experiment summary: Cytotoxicity against human BEAS-2B cells assessed as inhibition of cell growth incubated for 48 hrs by MTT assay
Type: toxicity, cell-based
property measured: IC50 at 48 h (µM)

In [3]: df
Out[3]:
                                   compound   u  limit_qualifier  observed_measurement
0  O=S(=O)(c1ccccc1)c1c(OCCCCOc2cccc3c2Oc2cccc(c2)CCc2ccc(O)c(c2)Oc2ccc(cc2)CC3)no[n+]1[O-]  µM                >                    20
1  O=S(=O)(c1ccccc1)c1c(OCCCOc2cccc3c2Oc2cccc(c2)CCc2ccc(O)c(c2)Oc2ccc(cc2)CC3)no[n+]1[O-]  µM                =                  14.8
2  O=S(=O)(c1ccccc1)c1c(OCCCCCCOc2cccc3c2Oc2cccc(c2)CCc2ccc(O)c(c2)Oc2ccc(cc2)CC3)no[n+]1[O-]  µM                >                    20
3  COc1cccc2c1C(=O)c1c(O)c3c(c(O)c1C2=O)C[C@@](O)(C(=O)CO)C[C@@H]3O[C@H]1C[C@H](N)[C@H](O)[C@H](C)O1  µM                <                   2.5
4  O=S(=O)(c1ccccc1)c1c(OCCOCCOc2cccc3c2Oc2cccc(c2)CCc2ccc(O)c(c2)Oc2ccc(cc2)CC3)no[n+]1[O-]  µM                =                  5.14
5  O=S(=O)(c1ccccc1)c1c(OCCOc2cccc3c2Oc2cccc(c2)CCc2ccc(O)c(c2)Oc2ccc(cc2)CC3)no[n+]1[O-]  µM                =                  13.7
6  O=S(=O)(c1ccccc1)c1c(OCCCOc2ccc3cc2Oc2ccc(cc2)CCc2cccc(O)c2Oc2cccc(c2)CC3)no[n+]1[O-]  µM                <                   2.5

Hey, just so you know, these numbers are from ChEMBL document CHEMBL6103624.
